logD values for the compounds below.
# Method Notes: Isoelectric point, log D and log P (SiriusT3)
# Type: physicochemical
# Condition Context: pH 7.4, Log D (7.4)
Residues, ends and D or L forms follow the SMILES beside them.
// no unit string in output, number only

{"columns": ["Compound", "Result Number"],
 "data": [
  ["CC[C@H](C)[C@H](NC(C)=O)C(=O)N[C@@H](Cc1c[nH]cn1)C(=O)N[C@H](C(=O)N[C@H](C(=O)N[C@H](C(=O)N1CCC[C@H]1C(=O)N[C@@H](C)C(=O)N[C@@H](CC(=O)O)C(=O)N[C@@H](CC(C)C)C(=O)N[C@@H](Cc1c[nH]c2ccccc12)C(=O)N[C@@H](CC(=O)O)C(=O)N[C@@H](Cc1c[nH]c2ccccc12)C(=O)N[C@H](C(=O)N[C@@H](CCCNC(=N)N)C(=O)N[C@@H](CCCNC(=N)N)C(N)=O)C(C)C)[C@@H](C)CC)[C@@H](C)O)C(C)C [SEQ ID NO: 14] (Ac-IHVTIPADLWDWVRR-NH2)", -2.8]
]}

Next compound, please.
Ask: Which logD is listed for CC[C@H](C)[C@H](NC(C)=O)C(=O)N[C@@H](Cc1c[nH]cn1)C(=O)N[C@H](C(=O)N[C@H](C(=O)N[C@H](C(=O)N1CCC[C@H]1C(=O)N[C@@H](C)C(=O)N[C@@H](CC(=O)O)C(=O)N[C@@H](CC(C)C)C(=O)N[C@@H](Cc1c[nH]c2ccccc12)C(=O)N[C@@H](CC(=O)O)C(=O)N[C@@H](Cc1c[nH]c2ccccc12)C(=O)N[C@H](C(=O)N[C@@H](CC(N)=O)C(=O)N[C@@H](CCCCN)C(N)=O)C(C)C)[C@@H](C)CC)[C@@H](C)O)C(C)C [SEQ ID NO: 8] (Ac-IHVTIPADLWDWVNK-NH2) ?
Result: -4.06
